The origin of these recorded values is patent US12685735B2.

Examples of compounds with documented BRM Max % Inhibition follow.
- tested.on: BRM (Homo sapiens, UniProt P51531)
- Sequence (P51531 whole entry): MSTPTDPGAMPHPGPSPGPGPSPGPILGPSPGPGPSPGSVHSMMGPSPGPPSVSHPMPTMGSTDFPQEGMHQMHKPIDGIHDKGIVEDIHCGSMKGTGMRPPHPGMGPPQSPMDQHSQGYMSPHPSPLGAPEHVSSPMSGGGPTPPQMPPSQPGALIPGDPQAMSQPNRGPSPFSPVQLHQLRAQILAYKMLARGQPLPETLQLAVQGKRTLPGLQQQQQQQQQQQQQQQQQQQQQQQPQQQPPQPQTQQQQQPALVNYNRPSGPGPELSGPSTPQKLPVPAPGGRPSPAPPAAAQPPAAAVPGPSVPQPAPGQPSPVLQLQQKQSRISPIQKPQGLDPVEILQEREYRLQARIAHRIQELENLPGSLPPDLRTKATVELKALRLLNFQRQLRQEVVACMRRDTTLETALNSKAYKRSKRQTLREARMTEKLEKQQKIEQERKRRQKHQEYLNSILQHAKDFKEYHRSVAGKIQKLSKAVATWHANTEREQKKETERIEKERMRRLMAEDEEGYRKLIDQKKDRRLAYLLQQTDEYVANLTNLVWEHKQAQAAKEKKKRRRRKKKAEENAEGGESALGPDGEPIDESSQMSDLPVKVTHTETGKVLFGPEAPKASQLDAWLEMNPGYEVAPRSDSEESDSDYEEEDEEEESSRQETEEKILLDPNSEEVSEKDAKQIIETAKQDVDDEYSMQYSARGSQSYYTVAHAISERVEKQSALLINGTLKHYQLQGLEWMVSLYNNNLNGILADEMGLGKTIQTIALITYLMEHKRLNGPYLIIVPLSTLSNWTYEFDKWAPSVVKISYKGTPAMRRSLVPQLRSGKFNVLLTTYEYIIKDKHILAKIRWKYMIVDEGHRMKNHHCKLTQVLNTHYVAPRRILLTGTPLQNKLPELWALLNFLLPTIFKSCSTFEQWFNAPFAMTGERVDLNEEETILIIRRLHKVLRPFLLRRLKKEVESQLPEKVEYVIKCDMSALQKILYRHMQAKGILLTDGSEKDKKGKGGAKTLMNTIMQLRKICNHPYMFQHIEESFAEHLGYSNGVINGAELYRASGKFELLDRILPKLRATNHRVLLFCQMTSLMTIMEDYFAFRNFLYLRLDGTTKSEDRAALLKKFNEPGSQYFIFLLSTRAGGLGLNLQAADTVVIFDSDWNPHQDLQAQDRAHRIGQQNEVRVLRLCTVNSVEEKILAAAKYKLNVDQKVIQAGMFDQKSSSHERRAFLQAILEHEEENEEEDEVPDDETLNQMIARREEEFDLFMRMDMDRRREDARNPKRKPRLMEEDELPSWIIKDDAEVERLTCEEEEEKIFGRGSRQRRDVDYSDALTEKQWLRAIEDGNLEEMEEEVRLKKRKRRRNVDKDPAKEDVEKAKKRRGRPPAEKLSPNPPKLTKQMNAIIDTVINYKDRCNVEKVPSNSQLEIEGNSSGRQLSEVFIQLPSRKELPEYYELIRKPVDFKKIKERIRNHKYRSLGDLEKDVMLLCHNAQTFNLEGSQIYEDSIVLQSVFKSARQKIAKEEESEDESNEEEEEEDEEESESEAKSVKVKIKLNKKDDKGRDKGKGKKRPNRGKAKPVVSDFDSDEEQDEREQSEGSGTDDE
- assay.procedure: ATPase catalytic activity assay of BRM (ADP-Glo)
- Assay type: biochemical

Illustrative cases are given below, each with its answer.
C[C@@]1(C#N)COCc2ccc(C(=O)NCC(=O)Nc3nc(-c4cccc([C@H]5CC5(F)F)c4)cs3)cc21 :: >95%
CNc1cc(-c2cccc(-c3csc(NC(=O)CNC(=O)c4cccc(C(C)(C)CN)c4)n3)c2)ccn1 :: >95%
C[C@@H]1CN(c2cccc(-c3csc(NC(=O)CNC(=O)c4cnc5c(c4)[C@](C)(CO)CC5)n3)c2)C[C@H](C)O1 :: >80%
COc1cccc(-c2csc(NC(=O)C3(NC(=O)c4ccc5c(c4)[C@](C)(C#N)COC5)CC3(F)F)n2)c1 (some centres unmarked) :: >85%
Cn1ccc2ccc(-c3csc(NC(=O)CNC(=O)c4cccc(C5(C#N)CCC5)c4)n3)cc2c1=O :: >90%

Inquiry: What value of measured BRM Max % Inhibition is listed for C[C@@]1(C#N)COCc2ccc(C(=O)NC3(C(=O)Nc4nc(-c5cccc(C(F)F)c5)cs4)CC3)cc21 ?
Reply text: >75%

Inquiry: For Cc1cc(-c2cccc(-c3csc(NC(=O)CNC(=O)c4ccc5c(c4)[C@](C)(CO)CCC5)n3)c2)cc(C)n1 , what is its reported BRM Max % Inhibition?
Reply text: >95%

Inquiry: Recorded BRM Max % Inhibition for C[C@@H]1CN(c2cccc(-c3csc(NC(=O)CNC(=O)c4ccc5c(c4)C(C)(CO)COC5)n3)c2)C[C@H](C)O1 (stereo in doubt) [Compound 373] , please?
Reply text: >90%

Inquiry: Given Cn1ccc(-c2cccc(-c3csc(NC(=O)CNC(=O)c4ccc5c(c4)[C@@](C)(CO)CC5)n3)n2)n1 , state its recorded BRM Max % Inhibition.
Reply text: >90%

Inquiry: Form field: reported BRM Max % Inhibition of O=C(CNC(=O)c1ccc2c(c1)S(=O)(=O)CCCC2)Nc1nc(-c2cccc(-c3ccncc3)c2)cs1
Reply text: >95%

Inquiry: Record request: BRM Max % Inhibition value, item C[C@@H]1CN(c2cccc(-c3csc(NC(=O)CNC(=O)c4ccc5c(c4)[C@@H]([C@@H](C)O)CC5)n3)n2)C[C@H](C)O1
Reply text: >95%

Inquiry: Query (compound): COc1cccc(-c2csc(NC(=O)CNC(=O)c3ccc4c(c3)[C@](C)(C#N)COC4)n2)n1 ; field requested: BRM Max % Inhibition
Reply text: >95%

Inquiry: Fill blank: measured BRM Max % Inhibition of the compound CC(C)(CN)c1cccc(C(=O)NCC(=O)Nc2nc(-c3cccc(-c4cccc(C#N)c4)c3)cs2)c1 is ____.
Reply text: >90%

Inquiry: // returns reported BRM Max % Inhibition for input CC(C)(CO)c1cccc(C(=O)NCC(=O)Nc2nc(-c3cccc(-c4ccncc4)c3)cs2)c1
Reply text: >95%
